target: T1, human SIRPα v2-Fc (SIRPα2 extracellular domain fused to human IGHG1_Fc) (human, UniProt P78324 31-373; P0DOX5 223-449 = IgG part); assay: BLI Octet, antigen-Fc on biosensor;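 note: antigen captured on the biosensor tip and then immersed in solutions of the test antibodies, which act as the analyte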
T1 construct: as m38; also called V2 (e.g. SIRPα2); SIRPα V2:ESE
Entries and their koff

{"binder": "SIRPAB-7 (antibody, human IgG1, kappa, V domains shown) VH: QVQLQESGPGLVKPSQTLSLTCTVSGGSISSGEYYWEWIRQHPGKGLEWIGYIYSSGFTYYNPSLKSRVTISVDTSKNQFSLKLSSVTAADTAVYYCAREGLDGSYGSSAWGQGTLVTVSS VL: DIQLTQSPSSLSASVGDRVTITCQASQDISNYLNWYQQKPGKAPKLLIYDASNLETGVPSRFSGSGSGTDFTFTISSLQPEDIATYYCQQFAYLPYTFGGGTKVEIKR", "koff": "0.00956 s⁻¹"}
{"binder": "SIRPAB-10 (antibody, human IgG1, kappa, V domains shown) VH: QVQLVQSGAEVKKPGASVKVSCKASGYTFTGYPISWVRQAPGQGLEWMGWIYAYGGNTNYAQKLQGRVTMTTDTSTSTAYMELRSLRSDDTAVYYCAREAGSSWYDFDLWGRGTLVTVSS VL: DIQMTQSPSSVSASVGDRVTITCRASQGISSWLAWYQQKPGKAPKLLIYAASNLQSGVPSRFSGSGSGTDFTLTISSLQPEDFATYYCQQGASFPITFGGGTKVEIKR", "koff": "0.00132 s⁻¹"}
{"binder": "SIRPAB-13 (antibody, human IgG1, kappa, V domains shown) VH: QVQLVQSGAEVKKPGASVKVSCKASGYTFHGYGISWVRQAPGQGLEWMGWISAYSGETNYAQKLQGRVTMTTDTSTSTAYMELRSLRSDDTAVYYCAREAGSSWYDFDLWGRGTLVTVSS VL: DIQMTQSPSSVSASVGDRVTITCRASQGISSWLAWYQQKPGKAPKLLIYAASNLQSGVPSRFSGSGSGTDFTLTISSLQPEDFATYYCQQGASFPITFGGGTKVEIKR", "koff": "0.0172 s⁻¹"}
{"binder": "SIRPAB-9 (antibody, human IgG1, kappa, V domains shown) VH: QVQLVQSGAEVKKPGASVKVSCKASGYTFGGYGISWVRQAPGQGLEWMGWISAYGGETNYAQKLQGRVTMTTDTSTSTAYMELRSLRSDDTAVYYCAREAGSSWYDFDLWGRGTLVTVSS VL: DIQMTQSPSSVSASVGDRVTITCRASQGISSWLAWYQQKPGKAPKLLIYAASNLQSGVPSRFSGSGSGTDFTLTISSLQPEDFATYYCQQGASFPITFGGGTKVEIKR", "koff": "0.0185 s⁻¹"}
